Tested on: CCRIS mutagenicity, Ames/micronucleus/aberration tests
Assay: CCRIS mutagenicity studies
Details: Test System: AMES SALMONELLA TYPHIMURIUM; Strain/Indicator: TA100; Metabolic Activation: NONE; Method: PREINCUBATION
Active and inactive are the calls of the source. No rule for the calls is given here.
parameter measured: mutagenic call

molecule=c1ccc(N(c2ccccc2)c2ccccc2)cc1 parameter_measured="mutagenic call" result="inactive; negative"
molecule=O=Cc1cccc(Cl)c1Cl parameter_measured="mutagenic call" result="inactive; negative"
molecule=Oc1ccc(Cl)cc1Cc1cc(Cl)ccc1O parameter_measured="mutagenic call" result="inactive; negative"
molecule=ClC=C(Cl)Cl parameter_measured="mutagenic call" result="inactive; negative"
molecule=CN parameter_measured="mutagenic call" result="inactive; negative"
molecule=[Cl][Ga]([Cl])[Cl] parameter_measured="mutagenic call" result="inactive; negative"
molecule="CCCCC(C=O)CC (stereo unspecified)" parameter_measured="mutagenic call" result="inactive; negative"
molecule=O=C(O)CCc1c[nH]c2ccccc12 parameter_measured="mutagenic call" result="inactive; negative"
molecule=BrCCBr parameter_measured="mutagenic call" result="active; positive"
molecule="Cc1cc2c3c(ccc2c2ccccc12)C(O)C(O)[C@@H]1O[C@@H]31 (stereo partly specified)" parameter_measured="mutagenic call" result="inactive; negative"
molecule="COC(=O)C(Cl)CCC(Cl)CCCCCC(Cl)CCC(Cl)CCCCCl (stereo unspecified)" parameter_measured="mutagenic call" result="inactive; negative"
molecule=CN(C)c1nc(N(C)C)nc(N(C)C)n1 parameter_measured="mutagenic call" result="inactive; negative"
molecule=Cc1cc(/C=C/c2ccc3cc(N(C)C)ccc3[n+]2C)c(C)n1-c1ccccc1 parameter_measured="mutagenic call" result="active; positive"
molecule="CC1CO1 (stereo unspecified)" parameter_measured="mutagenic call" result="active; positive"
molecule="CC(O)CCl (stereo unspecified)" parameter_measured="mutagenic call" result="inactive; negative"
molecule="C=CC(=O)N(CC1CO1)CC1CO1 (stereo unspecified)" parameter_measured="mutagenic call" result="active; positive"
molecule=C[C@@H]1[C@H](O)[C@@H](C)/C=C/C=C/C=C/C=C/C=C/C=C/C=C/[C@H](O[C@@H]2O[C@H](C)[C@@H](O)[C@H](N)[C@@H]2O)C[C@@H]2O[C@](O)(C[C@@H](O)C[C@@H](O)[C@H](O)CC[C@@H](O)C[C@@H](O)CC(=O)O[C@H]1C)C[C@H](O)[C@H]2C(=O)O parameter_measured="mutagenic call" result="inactive; negative"
molecule=C=CCNC(N)=O parameter_measured="mutagenic call" result="inactive; negative"
molecule=NC(=O)N(CCC(=O)O)N=O parameter_measured="mutagenic call" result="active; positive"
molecule=O=C(O)c1ccccc1O parameter_measured="mutagenic call" result="inactive; negative"
molecule=CCCC(=O)OCc1cccc([N+](=O)[O-])c1 parameter_measured="mutagenic call" result="inactive; negative"
molecule=O=S(=O)(O)OOS(=O)(=O)O parameter_measured="mutagenic call" result="inactive; negative"
molecule=COc1cc(-c2ccc(N/N=C3\C=C(S(=O)(=O)O)c4ccccc4C3=O)c(OC)c2)ccc1N=Nc1cc(S(=O)(=O)O)c2ccccc2c1N parameter_measured="mutagenic call" result="inactive; negative"
molecule=Nc1nc(=O)n([C@@H]2O[C@H](CO)[C@@H](O)[C@H]2O)cc1O parameter_measured="mutagenic call" result="inactive; negative"
molecule=C=CCNC(N)=S parameter_measured="mutagenic call" result="inactive; negative"
molecule=Cc1ccc(N)cc1O parameter_measured="mutagenic call" result="inactive; negative"
molecule=Cc1ccccc1S(N)(=O)=O parameter_measured="mutagenic call" result="inactive; negative"
molecule=Cc1ccccn1 parameter_measured="mutagenic call" result="inactive; negative"
molecule=CN(C)C(=O)Nc1ccc(Cl)cc1 parameter_measured="mutagenic call" result="inactive; negative"
molecule=COCCOC(C)=O parameter_measured="mutagenic call" result="inactive; negative"
molecule=COc1ccc(CCC(=O)c2c(O)cc(O[C@@H]3O[C@H](CO)[C@@H](O)[C@H](O)[C@H]3O[C@@H]3O[C@@H](C)[C@H](O)[C@@H](O)[C@H]3O)cc2O)cc1O parameter_measured="mutagenic call" result="inactive; negative"
molecule=O=C1C=CC(=O)c2c(O)ccc(O)c21 parameter_measured="mutagenic call" result="active; positive"
molecule=CON parameter_measured="mutagenic call" result="inactive; negative"
molecule=OCCCCCl parameter_measured="mutagenic call" result="active; positive"
molecule=CCN(CC)c1ccccc1 parameter_measured="mutagenic call" result="inactive; negative"
molecule="CC(C)CCC(C)Nc1ccc(NC(C)CCC(C)C)cc1 (stereo unspecified)" parameter_measured="mutagenic call" result="inactive; negative"
molecule=O=CNc1ccccc1 parameter_measured="mutagenic call" result="inactive; negative"
molecule=O=C(O)/C=C\C(=O)O parameter_measured="mutagenic call" result="inactive; negative"
molecule=CC(C)COC(=O)c1ccccc1N parameter_measured="mutagenic call" result="inactive; negative"
molecule=O=C(Cl)Cc1ccccc1 parameter_measured="mutagenic call" result="active; positive"
molecule=O=c1[nH]c(=O)n([C@H]2C[C@H](O)[C@@H](CO)O2)cc1/C=C/Br parameter_measured="mutagenic call" result="inactive; negative"
molecule=[Cl][Sb]([Cl])[Cl] parameter_measured="mutagenic call" result="inactive; negative"
molecule=O=S(=O)(c1ccc(O)cc1)c1ccc(O)cc1 parameter_measured="mutagenic call" result="inactive; negative"
molecule="CCCCCCC(O)C/C=C\\CCCCCCCC(=O)OCC(COC(=O)CCCCCCC/C=C\\CC(O)CCCCCC)OC(=O)CCCCCCC/C=C\\CC(O)CCCCCC (stereo unspecified)" parameter_measured="mutagenic call" result="inactive; negative"
molecule=CCn1cc(C(=O)O)c(=O)c2ccc(C)nc21 parameter_measured="mutagenic call" result="inactive; negative"
molecule=FC(F)(F)c1cccc(Cl)c1 parameter_measured="mutagenic call" result="inactive; negative"
molecule=CCOP(=O)(OCC)OCC parameter_measured="mutagenic call" result="inactive; negative"
molecule=Cc1cc(O)c(C(C)(C)C)cc1Sc1cc(C(C)(C)C)c(O)cc1C parameter_measured="mutagenic call" result="inactive; negative"
molecule=CCN(CC)C(=S)SSC[C@H](NC(=O)CC[C@H](N)C(=O)O)C(=O)NCC(=O)O parameter_measured="mutagenic call" result="inactive; negative"
molecule="CCC(C)C=O (stereo unspecified)" parameter_measured="mutagenic call" result="inactive; negative"
molecule=CCCCCCCCCC(=O)OCCN1CCN(CCCN2c3ccccc3Sc3ccc(C(F)(F)F)cc32)CC1 parameter_measured="mutagenic call" result="inactive; negative"
molecule="CCCCCCCCC1CO1 (stereo unspecified)" parameter_measured="mutagenic call" result="inactive; negative"
molecule=CNc1ccc2nc(C)cnc2c1C parameter_measured="mutagenic call" result="inactive; negative"
molecule=CCCC(=O)O parameter_measured="mutagenic call" result="inactive; negative"
molecule=OC[C@H](O)CCl parameter_measured="mutagenic call" result="active; positive"
molecule=CC(C)c1ccccc1OP(=O)(Oc1ccccc1)Oc1ccccc1 parameter_measured="mutagenic call" result="inactive; negative"

====

Tested on: CCRIS mutagenicity, Ames/micronucleus/aberration tests
Assay: CCRIS mutagenicity studies
Conditions: Test System: AMES SALMONELLA TYPHIMURIUM; Strain/Indicator: TA104; Metabolic Activation: RAT LIVER S-9, PHENOBARBITAL AND BETA-NAPHTHOFLAVONE; Method: PREINCUBATION
The source made the active and inactive calls. How the calls were made is not given here.
Labels: active, inactive

smiles_str=CCOCCOC(C)=O group=inactive
smiles_str=CCCC(=O)O group=inactive
smiles_str=Cc1ccccn1 group=inactive
smiles_str=Cc1ccc(Cl)cc1 group=inactive
smiles_str=C=C(C)C(=O)OCCN(C)C group=active
smiles_str=O=C(O)c1ccc2c(c1)C(=O)OC2=O group=inactive

====

Tested on: CCRIS mutagenicity, Ames/micronucleus/aberration tests
Experiment: CCRIS mutagenicity studies
Conditions: Test System: AMES SALMONELLA TYPHIMURIUM; Strain/Indicator: TA100; Metabolic Activation: NONE
Activity calls are given as the source filed them. How the calls were made is not given here.
parameter measured: mutagenic call

compound=CCCCCCC(=O)OCCN1CCN(CCCN2c3ccccc3Sc3ccc(C(F)(F)F)cc32)CC1 result="inactive; negative"
compound=BrCCBr result="active; positive"
compound=O=[N+]([O-])c1ccc2c(c1)CCc1cc3c(cc1-2)CCc1ccccc1-3 result="active; positive"
compound="C#CCc1ccc(COC(=O)C2C(C=C(C)C)C2(C)C)o1 (centres undefined)" result="inactive; negative"
compound=CCOC(=O)[C@H](CCc1ccccc1)N[C@@H](C)C(=O)N(CC(=O)O)C1Cc2ccccc2C1 result="inactive; negative"
compound=O=[N+]([O-])c1ccc2c(c1)-c1ccc([N+](=O)[O-])c3cccc-2c13 result="active; positive"
compound=c1ccc([C@@H]2CO2)cc1 result="active; positive"
compound=COP(=O)(OC)O/C(=C\Cl)c1cc(Cl)c(Cl)cc1Cl result="inactive; negative"
compound=COC(C)(C)C result="inactive; negative"

Origin of values: PubChem BioAssay AID1259407
